Can you tell me pIC50 for the items I'm about to list?
test system: 134 cancer cell lines; experiment: Cell viability assay (ATPlite, 72 hours), IC50 on cancer cell line panel; details: read-out: IC50 in cell proliferation assay, 11-18 cell line (EGFR p.L858R)
pIC50: −log10 of the molar value.

Ask: Please list pIC50 recorded for the molecule CCN1CCN(c2ccc(Nc3cc(N(C)C(=O)Nc4c(Cl)c(OC)cc(OC)c4Cl)ncn3)cc2)CC1 [infigratinib]
Result: < 5.50

Ask: Please list pIC50 recorded for the molecule O=C(Nc1cnn2ccc(N3CCC[C@@H]3c3cc(F)ccc3F)nc12)N1CC[C@H](O)C1 [larotrectinib]
Result: < 4.50

Ask: Please list pIC50 recorded for the molecule CCCS(=O)(=O)Nc1ccc(F)c(C(=O)c2c[nH]c3ncc(-c4ccc(Cl)cc4)cc23)c1F [vemurafenib]
Result: < 4.50

###

system: 134 cancer cell lines; assay: Cell viability assay (ATPlite, 72 hours), IC50 on cancer cell line panel; conditions: Homo sapiens, Rec1, read-out: IC50 in cell proliferation assay
Can you tell me pIC50 for the items I'm about to list?
By convention, pIC50 is the negative base-10 log of a molar concentration.

Ask: Please list pIC50 recorded for the compound C=CC(=O)N1CCC[C@@H](n2nc(-c3ccc(Oc4ccccc4)cc3)c3c(N)ncnc32)C1
Result: 9.29

Ask: Please list pIC50 recorded for the compound CNC(=O)c1ccc(-c2cnc3ncc(Cc4ccc5ncccc5c4)n3n2)cc1F
Result: 5.52

Ask: Please list pIC50 recorded for the compound CC#CC(=O)N1CCC[C@H]1c1nc(-c2ccc(C(=O)Nc3ccccn3)cc2)c2c(N)nccn12
Result: 7.68

Ask: Please list pIC50 recorded for the compound COc1cc(N2CCC(N3CCN(C)CC3)CC2)ccc1Nc1ncc(Cl)c(Nc2ccccc2P(C)(C)=O)n1
Result: 5.88

###

target: panel of 255 wild-type kinases (Homo sapiens, UniProt P23443); test: Kinase panel profiling at 1 µmol/L (MSA or IMAP), percentage inhibition; assay type: biochemical; settings: p70S6K; 1 µmol/L single concentration; read-out: %-inhibition, p70S6K
Sequence (P23443 whole entry): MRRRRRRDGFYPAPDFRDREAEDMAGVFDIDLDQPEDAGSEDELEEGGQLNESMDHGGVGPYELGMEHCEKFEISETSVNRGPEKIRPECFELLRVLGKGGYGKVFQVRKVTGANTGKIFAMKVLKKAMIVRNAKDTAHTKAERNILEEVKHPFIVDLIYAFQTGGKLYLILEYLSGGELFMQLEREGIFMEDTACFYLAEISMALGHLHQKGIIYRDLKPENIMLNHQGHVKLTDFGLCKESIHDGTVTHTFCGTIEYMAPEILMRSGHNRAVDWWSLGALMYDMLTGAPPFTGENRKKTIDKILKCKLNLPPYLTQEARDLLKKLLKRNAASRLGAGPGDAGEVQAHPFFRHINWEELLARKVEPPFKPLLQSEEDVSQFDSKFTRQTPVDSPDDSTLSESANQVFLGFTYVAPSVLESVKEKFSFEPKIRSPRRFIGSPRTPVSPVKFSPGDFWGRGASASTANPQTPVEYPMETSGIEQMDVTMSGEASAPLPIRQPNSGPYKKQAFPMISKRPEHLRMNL
Can you tell me inhibition at 1 µM for the items I'm about to list?
Put your answer as a value accompanied by its unit after it.

Ask: Please list inhibition at 1 µM recorded for the compound C=CC(=O)N1CCC([C@@H]2CCNc3c(C(N)=O)c(-c4ccc(Oc5ccccc5)cc4)nn32)CC1 [zanubrutinib]
Result: -3.21%

Ask: Please list inhibition at 1 µM recorded for the compound CN1CCN(c2ccc(C(=O)Nc3n[nH]c4ccc(Cc5cc(F)cc(F)c5)cc34)c(NC3CCOCC3)c2)CC1 [entrectinib]
Result: 25%

Ask: Please list inhibition at 1 µM recorded for the compound COC(=O)N[C@@H](C)CNc1nccc(-c2cn(C(C)C)nc2-c2cc(Cl)cc(NS(C)(=O)=O)c2F)n1 [encorafenib]
Result: 14%

Ask: Please list inhibition at 1 µM recorded for the compound CO[C@]1(C(=O)N[C@@H](C)c2ccc(-n3cc(F)cn3)nc2)CC[C@H](c2nc(C)cc(Nc3cc(C)[nH]n3)n2)CC1 [pralsetinib]
Result: 29%

Ask: Please list inhibition at 1 µM recorded for the compound O=C(Nc1cnn2ccc(N3CCC[C@@H]3c3cc(F)ccc3F)nc12)N1CC[C@H](O)C1 [larotrectinib]
Result: -1.58%

Ask: Please list inhibition at 1 µM recorded for the compound Cn1cnc2c(F)c(Nc3ccc(Br)cc3F)c(C(=O)NOCCO)cc21 [binimetinib]
Result: 4.72%

Ask: Please list inhibition at 1 µM recorded for the compound COc1ccc(CN2C3CC2CN(c2ccc(-c4cc(OCC(C)(C)O)cn5ncc(C#N)c45)cn2)C3)cn1 [selpercatinib]
Result: 42%

Ask: Please list inhibition at 1 µM recorded for the compound CCN1CCN(c2ccc(Nc3cc(N(C)C(=O)Nc4c(Cl)c(OC)cc(OC)c4Cl)ncn3)cc2)CC1 [infigratinib]
Result: 5.33%

Ask: Please list inhibition at 1 µM recorded for the compound Cn1cnc2c(F)c(Nc3ccc(Br)cc3Cl)c(C(=O)NOCCO)cc21 [selumetinib]
Result: 8%

Ask: Please list inhibition at 1 µM recorded for the compound COc1cc2ncnc(Nc3ccc(F)c(Cl)c3)c2cc1NC(=O)/C=C/CN1CCCCC1 [dacomitinib]
Result: 33%

Ask: Please list inhibition at 1 µM recorded for the compound FC(F)(F)c1ccc(CNc2ccc(Cc3c[nH]c4ncc(Cl)cc34)cn2)cn1 [pexidartinib]
Result: 31%

Ask: Please list inhibition at 1 µM recorded for the compound C[C@H](Nc1ncnc2nc[nH]c12)c1cc2cccc(Cl)c2c(=O)n1-c1ccccc1 [duvelisib]
Result: 6%
